System: SK-MEL-5 melanoma
Experiment: NCI-60 one-dose screen, 48 h (100 = growth as untreated, 0 = no growth, -100 = all killed)
Conditions: 10 µM
Compounds without any hit were thinned out: in the full panel of roughly 83,000, 20% have a hit.
Parameter: growth. Scope: all listed entries.
Write down the numeric answer in % and omit the unit.

Query: Specify measured growth for O=C(Nc1cccc(C(F)(F)F)c1)C(Cl)Cl .
Response: 103

Query: Specify measured growth for CCOC(=O)C(=O)Cc1cccnn1 .
Response: 108

Query: Specify measured growth for COc1ccc(Cn2cc3c(c2-c2ccccc2)CC(C)(C)c2cnoc2-3)cc1 .
Response: 13.1

Query: Specify measured growth for O=C(CCCC(=O)N/N=C/c1cc(Cl)ccc1O)N/N=C\c1cc(Cl)ccc1O .
Response: -1.89

Query: Specify measured growth for CCCCNC(=O)Oc1ccc(/C(=C(\C)c2ccc(OC)cc2)c2ccc(OCCN3CCCCC3)cc2)cc1 .
Response: 44.7

Query: Specify measured growth for COc1ccc(C2=Cc3ccc(OC(C)=O)cc3OC2)cc1 .
Response: 90.6

Query: Specify measured growth for CC(=O)c1c(O)cc2c3c1OC(C)(C)C1CCC(C)(CC31)O2 (stereo unspecified) .
Response: 83.1

Query: Specify measured growth for COc1cc(CSc2nc3ccc(Cl)cc3c(=O)n2Cc2ccccc2)cc(OC)c1OC .
Response: 25.7

Query: Specify measured growth for CC(=O)CS(C)(=O)=O .
Response: 98

Query: Specify measured growth for O=c1ccc2nc(-c3ccccc3)nn(-c3ccccc3)c-2c1 .
Response: 19.8

Query: Specify measured growth for O=[N+]([O-])c1ccc(-c2nc(-c3ccccc3)c(-c3ccccc3)n2-c2ccccc2)cc1 .
Response: 61.9

====

Tested on: NCI-H522 lung
Assay: NCI-60 one-dose screen, 48 h (100 = growth as untreated, 0 = no growth, -100 = all killed)
Conditions: 10 µM
This is part of a sample that, as a whole, favours compounds with a hit. Of some 83,000 tested, about 20% had one in any assay.
Parameter: growth. Scope: all listed entries.
Write down the numeric answer in % and omit the unit.

Record excerpt, results attached:
>>> print(df.to_string())
                                   molecule         system  measured_number
0  COc1ccc(-c2nc3sc(-c4ccccc4)c(-c4ccccc4)n3c2/C=C/c2ccc(F)cc2)cc1  NCI-H522 lung              106
1  Cc1cc(OI)c(C(C)C)cc1-c1cc(C(C)C)c(OI)cc1C  NCI-H522 lung             94.5
2          O=C(N/N=C\c1cc(Cl)ccc1O)c1ccncc1  NCI-H522 lung             11.7
3  COc1cc(-c2nc3ccccc3[nH]2)ccc1OCc1nnc(-c2ccc(Br)cc2)o1  NCI-H522 lung             93.9

# input for lookup
Query: Specify measured growth for O=C(NNc1nc(N2CCCC2)nc(N2CCCC2)n1)c1ccccc1 .
Response: 94.2

====

Tested on: HOP-62 NSCLC
Experiment: NCI-60 one-dose screen, 48 h (100 = growth as untreated, 0 = no growth, -100 = all killed)
Settings: 10 µM
This is part of a sample that, as a whole, favours compounds with a hit. Of some 83,000 tested, about 20% had one in any assay.
Label scheme for growth: lower than 90% is Not met, 90% and above is Met.

Below are worked cases with known answers.
In [3]: df
Out[3]:
                                   compound  category_label
0  FC(F)(F)c1ccc(-c2cnc(Cl)nc2NCc2cc(C(F)(F)F)cc(C(F)(F)F)c2)cc1         Not met
1  O=[N+]([O-])C1CC2C=CC1C2 (stereo not given)             Met
2  CCCCCCCCCCN=C(c1ccc(N(C)C)cc1)c1ccc(N(C)C)cc1         Not met
3  Cc1cc(O)c(C2=NN(c3ccc(S(N)(=O)=O)cc3)C(c3ccc(N(C)C)cc3)C2)c(C)c1Cl (stereo not given)             Met
4  COc1cc(NS(C)(=O)=O)ccc1Nc1c2ccc(Cl)cc2nc2c(OC)cccc12         Not met
5  Cc1cc(C(C)(C)CC(C)(C)C)ccc1OCCOCC[N+](C)(C)Cc1ccccc1         Not met

Query: Would you say CCN1CCN(c2nc(NNC(=O)c3cccc(OC)c3)nc(N3CCN(C(c4ccccc4)c4ccccc4)CC3)n2)CC1 shows growth at minimum 90%?
Response: Not met

Query: Would you say CCCCNC(=O)Oc1ccc(/C(=C(\C)c2ccc(OC)cc2)c2ccc(OCCN3CCCCC3)cc2)cc1 shows growth at minimum 90%?
Response: Not met

Query: Would you say N=C(N)c1ccc(-c2ccc(-c3cccs3)s2)nc1 shows growth at minimum 90%?
Response: Not met

Data credit: PubChem BioAssay (NCI)
